The following sequences are listed with their measured PBM binding z-score values.
- Test system: LXRb homodimer (NR concentration 270 nM)
- ASSAY_REMARKS: PBM binding z-score (relative to random genomic background probes); higher = stronger binding; sequences stand for … in GC…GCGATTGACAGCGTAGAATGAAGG
TEST_READOUT: PBM binding z-score

PRIMARY_SEQUENCE: CCTCGGAGGACAGAAGCTCAGAGCTGTCCGCTTT
ASSAY_RESULT: -0.889

PRIMARY_SEQUENCE: TTACCAAGGTGAGCTGAGGTCGTTGAGCCAACTC
ASSAY_RESULT: -1.19

PRIMARY_SEQUENCE: CGTCCAAGGTCAGAGAGGTCAGCGAATGCCGAGT
ASSAY_RESULT: 0.249

PRIMARY_SEQUENCE: CGTCAAAGTTCAACTAAGGTAAAGTAAAGCACGC
ASSAY_RESULT: 2.1

PRIMARY_SEQUENCE: AGAATGAGGTTATACGCAGATCAGGGAAGAAAGT
ASSAY_RESULT: -0.102

PRIMARY_SEQUENCE: AATACAGGGTCATCGTGGGCCAGAGTACGCACAG
ASSAY_RESULT: 0.911

PRIMARY_SEQUENCE: CGTTACGGGTCAAGGTTATAGCACGGGTGGTACG
ASSAY_RESULT: -0.0956

PRIMARY_SEQUENCE: ATCTCTAGGCAAAGATAGTTCAGTGAATGCAAAT
ASSAY_RESULT: 0.263

PRIMARY_SEQUENCE: CGTCCAAGGTCAAAGGTCAGTGAAGAGATGACGG
ASSAY_RESULT: 1.67

PRIMARY_SEQUENCE: GCTAGCAGGCCATTTGGGGCACTCAATGACGGGC
ASSAY_RESULT: -0.89

PRIMARY_SEQUENCE: TCTAGATGGTCAAAGGTCACACACTCGAAATGCG
ASSAY_RESULT: 1.37

PRIMARY_SEQUENCE: CTCGAAAGGTCGTGCTCAGGTGAGAATACCAAAC
ASSAY_RESULT: 0.321

* * *

- Test system: RARa homodimer (NR concentration 270 nM)
- ASSAY_REMARKS: PBM binding z-score (relative to random genomic background probes); higher = stronger binding; sequences stand for … in GC…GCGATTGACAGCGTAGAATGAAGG
Classification by PBM binding z-score | ranges: low-valued (below -0.4), mid-valued (-0.4 to below 0.7), high-valued (0.7 or more)

PRIMARY_SEQUENCE: AGAACCAGGGCACGCTGAGTTGATAGCAGAGTAG
CATEGORY: mid-valued

PRIMARY_SEQUENCE: ACTAGCAGGCCAAGTTTGTGTCACTCAAACAAAG
CATEGORY: low-valued

PRIMARY_SEQUENCE: AGAATGAGGTTATTAAGATGAGGGAATTGCGGTC
CATEGORY: high-valued

PRIMARY_SEQUENCE: TCATATACGTAAACAGGTGAAAGTCCGTAAGTTA
CATEGORY: high-valued

PRIMARY_SEQUENCE: TCATATAGGTAAAGGTGAATGTCGAACGATATGA
CATEGORY: mid-valued

PRIMARY_SEQUENCE: CGTCCAAGGTCATAGGAGGTCAGTGGAGACAGAT
CATEGORY: high-valued

PRIMARY_SEQUENCE: GTTAGTTGGTCAGTAAAAGGTCACACACCGGTCG
CATEGORY: high-valued

PRIMARY_SEQUENCE: ACTAGCAGGCCAAGCTTGGGTCACTCAAACAAAG
CATEGORY: low-valued

PRIMARY_SEQUENCE: TCTTGTAGGTCAACAGGAGGTTAAGAAAGATCGA
CATEGORY: mid-valued

PRIMARY_SEQUENCE: GTACCAAGGTGAATAGGTCGCTGATGAGTAGGCG
CATEGORY: mid-valued

PRIMARY_SEQUENCE: GCAGACAGGTGAAACGCAGGTAACTCTGGGTGGC
CATEGORY: low-valued

PRIMARY_SEQUENCE: CAAACTAGGTCACAGAGGTCAAAGTGCGTGCGTA
CATEGORY: high-valued

PRIMARY_SEQUENCE: TCGCCTAGGTCATTGGGCCAGTATAGTACGCATC
CATEGORY: low-valued

PRIMARY_SEQUENCE: ATATGTAGGTTAGCTGGGGCCATTCAGACTAGGC
CATEGORY: mid-valued

PRIMARY_SEQUENCE: CCTACTGGGCCTTTCAGAGGTCATTGATCATATG
CATEGORY: high-valued

PRIMARY_SEQUENCE: TCTCGCAGGACACGAAAGGTCAGAGCTCGACATC
CATEGORY: high-valued

PRIMARY_SEQUENCE: ACTAGCAGGCCTAGGGTCACTCAAGATTAGTCCG
CATEGORY: low-valued

PRIMARY_SEQUENCE: ATATGTAGGTTACATCCGGGTTATTCAGGCTATG
CATEGORY: mid-valued

PRIMARY_SEQUENCE: AGAATGAGGTTAAGATCTGGGAAACAGAATACAT
CATEGORY: mid-valued

PRIMARY_SEQUENCE: GCATATAGGTAATACAAGGTTAAAGTCCGATTGT
CATEGORY: mid-valued

PRIMARY_SEQUENCE: ATACCAAGGTGATCGTCAGGTCGTTGATACTAAC
CATEGORY: mid-valued

PRIMARY_SEQUENCE: ATCTCTAGGAAAGACTCAGTTCAGTGAAGAACGC
CATEGORY: high-valued

PRIMARY_SEQUENCE: CCAGGCAGGTGAGAAGGTAACTCAGCCTCGATTA
CATEGORY: low-valued

PRIMARY_SEQUENCE: TCGAGTAGGTTACCAATCGGGCATTCAGCTTTCT
CATEGORY: low-valued

PRIMARY_SEQUENCE: AATACAGGGGCACTAGGCCAGAGTAGGTACGAAT
CATEGORY: low-valued

* * *

- Test system: PPARg DBDmut:RXRa IVT, anti-PPARg (DBD mutation: PPARg1 K132A/R137A, NR concentration 270 nM, RXRa partner concentration 90 nM)
- ASSAY_REMARKS: PBM binding z-score (relative to random genomic background probes); higher = stronger binding; sequences stand for … in GC…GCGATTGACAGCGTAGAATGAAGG
# if value of PBM binding z-score reaches 1, tag Criterion met; if it stays below, tag Criterion not met

PRIMARY_SEQUENCE: TCTTGTAGATCAAGCAGGTTCAGAAAGCCTGAGT
CATEGORY: Criterion not met

PRIMARY_SEQUENCE: ATATGTAGGTTAGCTGGGGTCATTAAGACTAGGC
CATEGORY: Criterion met

PRIMARY_SEQUENCE: TCAGACAAGTGAAGGTAACTCAGGTACGCAGTCG
CATEGORY: Criterion not met

PRIMARY_SEQUENCE: TAGCCTAGCTCATGCGGGCCAGTATAGTGTCGGC
CATEGORY: Criterion not met

PRIMARY_SEQUENCE: GCTAGTTGGGCAGTAAAAGGTCACACACCGGTCG
CATEGORY: Criterion not met

PRIMARY_SEQUENCE: CCTACTGGGCCAAAAAGGTCAGTGATGCCGATAA
CATEGORY: Criterion not met

PRIMARY_SEQUENCE: AGAATGAGGTTAAGATCAGGGCAACAGAATACAT
CATEGORY: Criterion met

PRIMARY_SEQUENCE: CCTAGCAGGCCAATCTGGGTCACTCACGGCTTGA
CATEGORY: Criterion not met

PRIMARY_SEQUENCE: TGTCAAAGTTCAAAGGTAACGTCAGTATCCACAC
CATEGORY: Criterion met

PRIMARY_SEQUENCE: ACTATTAGTGGACTTAGGGCAACCGATACGACGC
CATEGORY: Criterion not met

PRIMARY_SEQUENCE: TCTAGTTGGTCAAAGGTCACACAATCGAAATGCG
CATEGORY: Criterion met

PRIMARY_SEQUENCE: TCTTGTAGATCAATAGGGGTTAAGAAAGTGCGCT
CATEGORY: Criterion met

* * *

- Tested on: PXR homodimer (NR concentration 270 nM)
- ASSAY_REMARKS: PBM binding z-score (relative to random genomic background probes); higher = stronger binding; sequences stand for … in GC…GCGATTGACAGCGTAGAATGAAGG
TEST_READOUT: PBM binding z-score

PRIMARY_SEQUENCE: ATCGAAAGGTCGACGAGGTGAGTTTACACCGTTT
TEST_READOUT: PBM binding z-score
ASSAY_RESULT: 0.675

PRIMARY_SEQUENCE: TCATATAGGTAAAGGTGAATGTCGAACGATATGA
TEST_READOUT: PBM binding z-score
ASSAY_RESULT: 0.181

PRIMARY_SEQUENCE: TCTATTAGTTGATTAGGGCTACCGAAACAGCGGA
TEST_READOUT: PBM binding z-score
ASSAY_RESULT: 0.128

PRIMARY_SEQUENCE: CCTACTGGGCCAGTCAGAGGTCATTGATCATATG
TEST_READOUT: PBM binding z-score
ASSAY_RESULT: 1.42

PRIMARY_SEQUENCE: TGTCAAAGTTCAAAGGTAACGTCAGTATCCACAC
TEST_READOUT: PBM binding z-score
ASSAY_RESULT: 3.43

PRIMARY_SEQUENCE: CATACAGGGTCAGCTAGGCCAGAGTGGGGACGGC
TEST_READOUT: PBM binding z-score
ASSAY_RESULT: 0.0916
